biological target: kinases (Homo sapiens, UniProt P10721, V559D/V654A); construct: purchased Eurofins/DiscoveRx; host or cells: E. coli BL21-derived host (T7 phage display) for most kinases; HEK-293 for the rest; experiment: KINOMEscan kinase binding assay (Eurofins/DiscoveRx), % Ctrl; conditions: 1 μM; KIT(V559D, V654A)
Sequence (P10721 26-976 V559D/V654A): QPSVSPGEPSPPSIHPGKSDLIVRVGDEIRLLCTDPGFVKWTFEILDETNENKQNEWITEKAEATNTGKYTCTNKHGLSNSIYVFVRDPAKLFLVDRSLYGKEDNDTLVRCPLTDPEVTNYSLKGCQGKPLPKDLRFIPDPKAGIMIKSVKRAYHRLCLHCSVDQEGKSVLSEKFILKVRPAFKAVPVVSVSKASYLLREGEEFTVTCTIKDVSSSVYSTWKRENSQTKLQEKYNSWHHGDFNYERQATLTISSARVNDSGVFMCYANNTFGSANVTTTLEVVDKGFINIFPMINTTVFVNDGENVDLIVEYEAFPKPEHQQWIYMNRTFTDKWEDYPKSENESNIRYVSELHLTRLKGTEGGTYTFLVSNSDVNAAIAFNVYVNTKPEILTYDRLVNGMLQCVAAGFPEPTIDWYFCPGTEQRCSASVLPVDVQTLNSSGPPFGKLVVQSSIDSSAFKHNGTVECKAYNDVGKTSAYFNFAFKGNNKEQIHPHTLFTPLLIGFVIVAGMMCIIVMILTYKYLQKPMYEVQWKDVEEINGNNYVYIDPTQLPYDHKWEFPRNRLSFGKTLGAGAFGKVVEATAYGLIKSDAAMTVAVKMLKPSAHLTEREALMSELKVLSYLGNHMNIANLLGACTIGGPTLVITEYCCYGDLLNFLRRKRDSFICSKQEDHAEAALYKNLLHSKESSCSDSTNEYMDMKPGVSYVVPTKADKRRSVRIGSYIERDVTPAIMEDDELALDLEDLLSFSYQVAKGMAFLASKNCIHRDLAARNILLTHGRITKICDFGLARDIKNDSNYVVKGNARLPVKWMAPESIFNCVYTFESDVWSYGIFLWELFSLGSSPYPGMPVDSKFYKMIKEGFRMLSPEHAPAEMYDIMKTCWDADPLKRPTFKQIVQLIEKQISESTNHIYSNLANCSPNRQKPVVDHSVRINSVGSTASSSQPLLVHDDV
I'd be grateful if you could share measured % Ctrl, KIT(V559D, V654A) for these entries.
Answers are plain numbers, in % Ctrl.

INSERT INTO measurements (compound, target_desc, value_kind, readout_unit, experimental_result) VALUES
  ('Cc1cc2c([nH]1)/C=C1\C(=O)Nc3cc(Cl)c(cc31)OCCO[C@@H](C(=O)N(C)C)CN(C)C2=O [Ex. 137]', 'kinases (Homo sapiens, UniProt P10721, V559D/V654A)', '% Ctrl, KIT(V559D, V654A)', '% Ctrl', 73),
  ('Cc1cc2c([nH]1)/C=C1\C(=O)Nc3ccc(cc31)OCCOCCN(C)C2=O [Ex.91]', 'kinases (Homo sapiens, UniProt P10721, V559D/V654A)', '% Ctrl, KIT(V559D, V654A)', '% Ctrl', 8),
  ('Cc1cc2c([nH]1)/C=C1\C(=O)Nc3ccc(cc31)-c1c(noc1C)COCCN(C)C2=O [Ex. 128]', 'kinases (Homo sapiens, UniProt P10721, V559D/V654A)', '% Ctrl, KIT(V559D, V654A)', '% Ctrl', 100),
  ('Cc1cc2c([nH]1)/C=C1\C(=O)Nc3ccc(cc31)-c1cnn(C)c1COCCN(C)C2=O [Ex. 124]', 'kinases (Homo sapiens, UniProt P10721, V559D/V654A)', '% Ctrl, KIT(V559D, V654A)', '% Ctrl', 7.7),
  ('Cc1cc2c([nH]1)/C=C1\C(=O)Nc3ccc(cc31)-c1c(C)n[nH]c1CNCCN(C)C2=O [Ex. 127]', 'kinases (Homo sapiens, UniProt P10721, V559D/V654A)', '% Ctrl, KIT(V559D, V654A)', '% Ctrl', 89),
  ('Cc1cc2c([nH]1)/C=C1\C(=O)Nc3ccc(cc31)-c1ccnn1CCOCCNC2=O [Ex.39]', 'kinases (Homo sapiens, UniProt P10721, V559D/V654A)', '% Ctrl, KIT(V559D, V654A)', '% Ctrl', 91),
  ('Cc1cc2c([nH]1)/C=C1\C(=O)Nc3cc(Cl)c(cc31)OCCOCCN(C)C2=O [Ex. 131]', 'kinases (Homo sapiens, UniProt P10721, V559D/V654A)', '% Ctrl, KIT(V559D, V654A)', '% Ctrl', 12);

Here is another compound to look at.
Value lookup for % Ctrl, KIT(V559D, V654A); key = CNC(=O)[C@H]1CN(C)C(=O)c2cc(C)[nH]c2/C=C2\C(=O)Nc3cc(Cl)c(cc32)OCCO1 [Ex. 135]
59

Source of measurements: patent US20230257396A1
